conditions: in DMSO, 308.2 K
readout.label: solubility (mole fraction)
Answers are plain numbers.

Task item: Can you look up the measured solubility (mole fraction) of "O=C(O)c1ccccc1Nc1cccc(C(F)(F)F)c1" for me?
Reply: 0.256

----------
settings: in n-butanol, 308.2 K
readout.label: solubility (mole fraction)
Give bare numbers.

Task item: Can you look up the measured solubility (mole fraction) of "O=C(O)c1ccccc1Nc1cccc(C(F)(F)F)c1" for me?
Reply: 0.142

----------
details: in ethanol, 313.2 K
readout.label: solubility (mole fraction)
Give bare numbers.

Task item: Can you look up the measured solubility (mole fraction) of "O=C(O)c1ccccc1Nc1cccc(C(F)(F)F)c1" for me?
Reply: 0.098

----------
conditions: in sec-butanol, 298.2 K
readout.label: solubility (mole fraction)

Task item: Can you look up the measured solubility (mole fraction) of "O=C(O)c1ccccc1Nc1cccc(C(F)(F)F)c1" for me?
Reply: 0.121

----------
details: in isopropanol, 313.2 K
readout.label: solubility (mole fraction)

Task item: Can you look up the measured solubility (mole fraction) of "O=C(O)c1ccccc1Nc1cccc(C(F)(F)F)c1" for me?
Reply: 0.128

----------
conditions: in ethylene glycol, 308.2 K
readout.label: solubility (mole fraction)
Numbers only.

Task item: Can you look up the measured solubility (mole fraction) of "O=C(O)c1ccccc1Nc1cccc(C(F)(F)F)c1" for me?
Reply: 0.00975

----------
details: in propylene glycol, 298.2 K
readout.label: solubility (mole fraction)
Answers are plain numbers.

Task item: Can you look up the measured solubility (mole fraction) of "O=C(O)c1ccccc1Nc1cccc(C(F)(F)F)c1" for me?
Reply: 0.0126

----------
settings: in isopropanol, 308.2 K
readout.label: solubility (mole fraction)
One number for each entry.

Task item: Can you look up the measured solubility (mole fraction) of "O=C(O)c1ccccc1Nc1cccc(C(F)(F)F)c1" for me?
Reply: 0.116

----------
settings: in methanol, 303.2 K
readout.label: solubility (mole fraction)
One number for each entry.

Task item: Can you look up the measured solubility (mole fraction) of "O=C(O)c1ccccc1Nc1cccc(C(F)(F)F)c1" for me?
Reply: 0.048

----------
details: in methanol, 308.2 K
readout.label: solubility (mole fraction)
Answers are plain numbers.

Task item: Can you look up the measured solubility (mole fraction) of "O=C(O)c1ccccc1Nc1cccc(C(F)(F)F)c1" for me?
Reply: 0.0531

----------
conditions: in DMSO, 298.2 K
readout.label: solubility (mole fraction)
Give bare numbers.

Task item: Can you look up the measured solubility (mole fraction) of "O=C(O)c1ccccc1Nc1cccc(C(F)(F)F)c1" for me?
Reply: 0.226

----------
details: in methanol, 313.2 K
readout.label: solubility (mole fraction)
Give bare numbers.

Task item: Can you look up the measured solubility (mole fraction) of "O=C(O)c1ccccc1Nc1cccc(C(F)(F)F)c1" for me?
Reply: 0.0577

----------
conditions: in transcutol, 318.2 K
readout.label: solubility (mole fraction)

Task item: Can you look up the measured solubility (mole fraction) of "O=C(O)c1ccccc1Nc1cccc(C(F)(F)F)c1" for me?
Reply: 0.278

----------
details: in n-butanol, 313.2 K
readout.label: solubility (mole fraction)
Give bare numbers.

Task item: Can you look up the measured solubility (mole fraction) of "O=C(O)c1ccccc1Nc1cccc(C(F)(F)F)c1" for me?
Reply: 0.157

----------
conditions: in methanol, 318.2 K
readout.label: solubility (mole fraction)
Give bare numbers.

Task item: Can you look up the measured solubility (mole fraction) of "O=C(O)c1ccccc1Nc1cccc(C(F)(F)F)c1" for me?
Reply: 0.0629

----------
details: in sec-butanol, 313.2 K
readout.label: solubility (mole fraction)
Answers are plain numbers.

Task item: Can you look up the measured solubility (mole fraction) of "O=C(O)c1ccccc1Nc1cccc(C(F)(F)F)c1" for me?
Reply: 0.16

----------
settings: in transcutol, 298.2 K
readout.label: solubility (mole fraction)
Numbers only.

Task item: Can you look up the measured solubility (mole fraction) of "O=C(O)c1ccccc1Nc1cccc(C(F)(F)F)c1" for me?
Reply: 0.193

----------
conditions: in propylene glycol, 318.2 K
readout.label: solubility (mole fraction)
One number for each entry.

Task item: Can you look up the measured solubility (mole fraction) of "O=C(O)c1ccccc1Nc1cccc(C(F)(F)F)c1" for me?
Reply: 0.0181

----------
details: in isopropanol, 318.2 K
readout.label: solubility (mole fraction)
Give bare numbers.

Task item: Can you look up the measured solubility (mole fraction) of "O=C(O)c1ccccc1Nc1cccc(C(F)(F)F)c1" for me?
Reply: 0.144

----------
conditions: in transcutol, 313.2 K
readout.label: solubility (mole fraction)
Answers are plain numbers.

Task item: Can you look up the measured solubility (mole fraction) of "O=C(O)c1ccccc1Nc1cccc(C(F)(F)F)c1" for me?
Reply: 0.251

----------
details: in ethanol, 308.2 K
readout.label: solubility (mole fraction)
One number for each entry.

Task item: Can you look up the measured solubility (mole fraction) of "O=C(O)c1ccccc1Nc1cccc(C(F)(F)F)c1" for me?
Reply: 0.0857

----------
details: in propylene glycol, 308.2 K
readout.label: solubility (mole fraction)
One number for each entry.

Task item: Can you look up the measured solubility (mole fraction) of "O=C(O)c1ccccc1Nc1cccc(C(F)(F)F)c1" for me?
Reply: 0.0153

----------
conditions: in transcutol, 303.2 K
readout.label: solubility (mole fraction)

Task item: Can you look up the measured solubility (mole fraction) of "O=C(O)c1ccccc1Nc1cccc(C(F)(F)F)c1" for me?
Reply: 0.211

----------
details: in DMSO, 318.2 K
readout.label: solubility (mole fraction)
One number for each entry.

Task item: Can you look up the measured solubility (mole fraction) of "O=C(O)c1ccccc1Nc1cccc(C(F)(F)F)c1" for me?
Reply: 0.286

----------
conditions: in sec-butanol, 318.2 K
readout.label: solubility (mole fraction)

Task item: Can you look up the measured solubility (mole fraction) of "O=C(O)c1ccccc1Nc1cccc(C(F)(F)F)c1" for me?
Reply: 0.179

----------
conditions: in n-butanol, 298.2 K
readout.label: solubility (mole fraction)
Answers are plain numbers.

Task item: Can you look up the measured solubility (mole fraction) of "O=C(O)c1ccccc1Nc1cccc(C(F)(F)F)c1" for me?
Reply: 0.119

----------
details: in isopropanol, 298.2 K
readout.label: solubility (mole fraction)
Answers are plain numbers.

Task item: Can you look up the measured solubility (mole fraction) of "O=C(O)c1ccccc1Nc1cccc(C(F)(F)F)c1" for me?
Reply: 0.0962

----------
settings: in propylene glycol, 303.2 K
readout.label: solubility (mole fraction)
Numbers only.

Task item: Can you look up the measured solubility (mole fraction) of "O=C(O)c1ccccc1Nc1cccc(C(F)(F)F)c1" for me?
Reply: 0.0139

----------
conditions: in ethylene glycol, 313.2 K
readout.label: solubility (mole fraction)
Numbers only.

Task item: Can you look up the measured solubility (mole fraction) of "O=C(O)c1ccccc1Nc1cccc(C(F)(F)F)c1" for me?
Reply: 0.0107

----------
conditions: in methanol, 298.2 K
readout.label: solubility (mole fraction)
Answers are plain numbers.

Task item: Can you look up the measured solubility (mole fraction) of "O=C(O)c1ccccc1Nc1cccc(C(F)(F)F)c1" for me?
Reply: 0.0439

----------
settings: in n-butanol, 318.2 K
readout.label: solubility (mole fraction)
One number for each entry.

Task item: Can you look up the measured solubility (mole fraction) of "O=C(O)c1ccccc1Nc1cccc(C(F)(F)F)c1" for me?
Reply: 0.177

----------
details: in sec-butanol, 303.2 K
readout.label: solubility (mole fraction)
One number for each entry.

Task item: Can you look up the measured solubility (mole fraction) of "O=C(O)c1ccccc1Nc1cccc(C(F)(F)F)c1" for me?
Reply: 0.133

----------
conditions: in propylene glycol, 313.2 K
readout.label: solubility (mole fraction)

Task item: Can you look up the measured solubility (mole fraction) of "O=C(O)c1ccccc1Nc1cccc(C(F)(F)F)c1" for me?
Reply: 0.0167

----------
conditions: in DMSO, 303.2 K
readout.label: solubility (mole fraction)
One number for each entry.

Task item: Can you look up the measured solubility (mole fraction) of "O=C(O)c1ccccc1Nc1cccc(C(F)(F)F)c1" for me?
Reply: 0.241

----------
details: in water, 313.2 K
readout.label: solubility (mole fraction)
Answers are plain numbers.

Task item: Can you look up the measured solubility (mole fraction) of "O=C(O)c1ccccc1Nc1cccc(C(F)(F)F)c1" for me?
Reply: 1.28e-06

----------
conditions: in PEG-400, 318.2 K
readout.label: solubility (mole fraction)
Answers are plain numbers.

Task item: Can you look up the measured solubility (mole fraction) of "O=C(O)c1ccccc1Nc1cccc(C(F)(F)F)c1" for me?
Reply: 0.0616

----------
conditions: in PEG-400, 303.2 K
readout.label: solubility (mole fraction)
Give bare numbers.

Task item: Can you look up the measured solubility (mole fraction) of "O=C(O)c1ccccc1Nc1cccc(C(F)(F)F)c1" for me?
Reply: 0.04
